Source: patent EP4603105A1

Tested on: human lung cancer strain NCI-H441
Type: cell-based
pIC50: −log10 of the molar value. Where a SMILES comes first, the peptide text is derived from it. Bridges are numbered along the chain shown (N, C = ends). [ ]: non-standard residue; d: D form. hPhe(3-Cl-4-CF3) = N[C@@H](CCc1ccc(C(F)(F)F)c(Cl)c1)C(=O)O; NPrPhe(4-CF3) = CCCN[C@@H](Cc1ccc(C(F)(F)F)cc1)C(=O)O; NMeGly(cPent) = CN[C@H](C(=O)O)C1CCCC1; Hyp = O=C(O)[C@@H]1C[C@@H](O)CN1; NMeL = CN[C@@H](CC(C)C)C(=O)O; Ac5c = NC1(C(=O)O)CCCC1; Aze = O=C(O)[C@@H]1CCN1; Sar = CNCC(=O)O

{"molecule": "CCO[C@@H]1C[C@H]2C(=O)NC3(CC(C)(C)C3)C(=O)N(C)[C@@H](C(CC)CC)C(=O)N(C)[C@H](C(=O)N(C)C)CC(=O)N(C)[C@@H](CC)C(=O)N[C@@H]([C@@H](C)CC)C(=O)N(C)CC(=O)N(C)[C@H]3C/C=C\\CCN(C3=O)[C@@H](Cc3ccc(C)cc3)C(=O)N(C)CC(=O)N[C@@H](CCc3ccc(C(F)(F)F)c(Cl)c3)C(=O)N2C1", "pIC50": 7.75}
{"molecule": "CCCN1C(=O)CN(C)C(=O)[C@@H]2CCN2C(=O)[C@H]([C@@H](C)CC)NC(=O)[C@H](CC(C)C)N(C)C(=O)C[C@@H](C(=O)N(C)C)NC(=O)[C@H](C2CCCC2)N(C)C(=O)C2(CCCC2)NC(=O)[C@@H]2C[C@@H](OCC)CN2C(=O)[C@H](CCc2ccc(C(F)(F)F)c(Cl)c2)NC(=O)CN(C)C(=O)[C@@H]1Cc1ccc(C(F)(F)F)cc1 [PP0377] ([NMeL]I[Aze][Sar][NPrPhe(4-CF3)][Sar][hPhe(3-Cl-4-CF3)][Hyp](Et)[Ac5c][NMeGly(cPent)]D-NMe2; lactam N-11)", "pIC50": 7.48}

====

test-system: GDP-bound KRAS wild-type protein (Homo sapiens)
Sequence (P01116 1-188 isoform P01116-2): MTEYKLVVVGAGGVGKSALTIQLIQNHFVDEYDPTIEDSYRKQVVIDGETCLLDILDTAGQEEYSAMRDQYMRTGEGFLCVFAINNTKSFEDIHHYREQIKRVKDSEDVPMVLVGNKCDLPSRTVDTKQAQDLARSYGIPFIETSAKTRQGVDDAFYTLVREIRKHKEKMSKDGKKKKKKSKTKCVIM
experimental-protocol: Binding to KRAS by surface plasmon resonance (SPR), dissociation constant KD
assay-context: 1:1 binding model
pKd: −log10 of the molar value. Where a SMILES comes first, the peptide text is derived from it. Bridges are numbered along the chain shown (N, C = ends). [ ]: non-standard residue; d: D form. The star is where a group is joined. hPhe(3-Cl-4-CF3) = N[C@@H](CCc1ccc(C(F)(F)F)c(Cl)c1)C(=O)O; NPrPhe(4-CF3) = CCCN[C@@H](Cc1ccc(C(F)(F)F)cc1)C(=O)O; NMeGly(cPent) = CN[C@H](C(=O)O)C1CCCC1; Gly(cPent) = N[C@H](C(=O)O)C1CCCC1; NMeD = CN[C@@H](CC(=O)O)C(=O)O; NMeL = CN[C@@H](CC(C)C)C(=O)O; Morpholide = C1CN(*)CCO1; Ac5c = NC1(C(=O)O)CCCC1; Aze = O=C(O)[C@@H]1CCN1; Sar = CNCC(=O)O

{"molecule": "CCCN1C(=O)CN(C)C(=O)[C@@H]2CCN2C(=O)[C@H](C2CCCC2)NC(=O)[C@H](CC(C)C)N(C)C(=O)C[C@@H](C(=O)N2CCOCC2)N(C)C(=O)[C@H](C2CCCC2)N(C)C(=O)C2(CCCC2)NC(=O)[C@@H]2CCCN2C(=O)[C@H](CCc2ccc(C(F)(F)F)c(Cl)c2)NC(=O)CN(C)C(=O)[C@@H]1Cc1ccc(C(F)(F)F)cc1 [PP0306] ([NMeL][Gly(cPent)][Aze][Sar][NPrPhe(4-CF3)][Sar][hPhe(3-Cl-4-CF3)]P[Ac5c][NMeGly(cPent)][NMeD]-Morpholide; lactam N-11)", "pKd": 8.92}
